# Test system: SH-5Y5Y cell line
# Test protocol: cytotoxicity CC50
# Assay type: cell-based, human
# Run conditions: concentration at which 50% of plated cells remain alive
Counter-ions that a name gives are not always drawn.
Property name: CC50

*Q* Identify the measured CC50 of CC(C)CN(CCCN1CCN(CCCNc2nc3ccccc3[nH]2)CC1)CC(C)C [Example 2, sulphate salt] for SH-5Y5Y cell line.
*A* > 30 µM

meta.source: patent US10772884B2
